Experiment: chemical genetic growth profiling, strain panel (AID 1159580);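 also: tested at 20 µM; growth read once vehicle control cultures reached saturation at 30 °C; 1 = growth at the plate median or of vehicle wells; lower values mean less growth of the strain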
Settings: S. cerevisiae deletion strains, growth OD, locus YOR069W, strain VPS5
About 2,000 (36%) of roughly 5,500 compounds were called active. Roughly 18% stayed inconclusive and do not appear here. Rule as the data show it: active = normalized growth mostly below about 0.91 (no sharp cut-off); inconclusive = no clear call, values can overlap the other calls; inactive = mostly above about 0.92. The list shows a part of the results.
Pick one and only one: y = active, n = inactive

CC(=O)O[C@@H]1CC2C(C)(C)C(=O)CC[C@]2(C)C2CC[C@]3(C)C(=CC(=O)O[C@H]3c3ccoc3)[C@@]21C (stereo partly drawn) ... n

Please share the test call associated with Nc1ccc(C(=O)NCC(=O)O)cc1 .
n

COc1cc(C(=O)NCc2ccc(OCCN(C)C)cc2)cc(OC)c1OC ?
n

C=C(C)[C@H]1CC=C(C(=O)O)CC1 ?
n

CSCCC(NC=O)C(=O)NC(C)C(=O)O (stereo not drawn) ?
n

COC(=O)Oc1ccccc1C(=O)O ?
n

----------
Reported normalized growth values for a set of compounds
Experiment: chemical genetic growth profiling, strain panel (AID 1159580)
Details: S. cerevisiae deletion strains, growth OD, locus YLR403W, strain SFP1, hits give low values
Among all 5,500 compounds or so, about 2,000 (36%) were called active. About 18% were inconclusive and are not listed. This is one part of the list.

Look over these answered cases.
O=[N+]([O-])c1ccccc1CS(=O)(=O)c1nc2ccccc2s1 ... 0.503 (active)
O=C(Nc1ccc(C(F)(F)F)cc1)N1CCN(c2ccnc3cc(Cl)ccc23)CC1 ... 1.02 (inactive)

Which normalized growth is reported for this compound? N#CC(C#N)=C/C=C(/Sc1ccc(F)c(Cl)c1)c1ccc(Cl)cc1
0.753 (inactive)

O=C(NCCSCc1ccco1)Nc1cc(Cl)cc(Cl)c1 ?
0.868 (inactive)

----------
Experiment: chemical genetic growth profiling, strain panel (AID 1159580)
Conditions: S. cerevisiae deletion strains, growth OD, locus YJR075W, strain HOC1, hits give low values
About 2,000 (36%) of roughly 5,500 compounds were called active. Not shown: some 18% with an inconclusive outcome. This is one part of the list.
readout-name: normalized growth
Form: value (number only, do not type unit).

Look over these answered cases.
C/C=C/c1ccc2c(c1)OCO2 ... 1.01
CC(=O)c1sc(SCc2ccc(Cl)cc2)c2c1CC(C)(C)CC2=O ... 1.05
C=C(CC)C(=O)c1ccc(OCC(=O)O)c(Cl)c1Cl ... 0.982
CCCCC(CC)CN1CN(CC(CC)CCCC)CC(C)(N)C1 (configuration not stated) ... 0.372
O=C(N/N=C\C=C\c1ccccc1)c1ccccc1-n1cccc1 ... 0.997

Please look at the following molecule next.
Which normalized growth is reported for this molecule? CC1CCN(C(=O)CC#N)CC1
1.01

----------
Experiment: chemical genetic growth profiling, strain panel (AID 1159580)
Settings: S. cerevisiae deletion strains, growth OD, locus YDR477W, strain SNF1, hits give low values
In all, about 5,500 compounds went through this assay and about 2,000 (36%) were called active. Another 18% or so got no clear call; they are omitted. The list shows a part of the results.
readout-name: normalized growth
Form: value (number only, do not type unit).

Cn1c(CSCCOc2ccccc2)nnc1SCc1ccc(Cl)cc1Cl ... 1.02
CC(=O)c1sc(SCCS(=O)(=O)c2ccc(C)cc2)c2c1CC(C)(C)CC2=O ... 0.643
Cc1ccc(S(=O)(=O)CCSC2=CC(=O)CC(C)(C)S2)cc1 ... 0.974
Fc1cccc(Cl)c1CSc1nncn1-c1ccc(OCc2ccccc2)cc1 ... 0.983

Which normalized growth is reported for this compound? O=C(Nc1ccc(C(F)(F)F)cc1)N1CCN(c2ccnc3cc(Cl)ccc23)CC1
0.997

CC(=O)Nc1ccc(/C=C/[N+](=O)[O-])cc1 ?
0.809

O=[N+]([O-])/C=C/c1ccc(F)cc1 ?
0.1

Cc1c(C)c(C)c(CSC(N)=Nc2ccc(F)cc2)c(C)c1C ?
0.931

COc1ccc(C(=O)CSC2=NCCc3ccccc32)cc1 ?
1

O=C(NCc1ccncc1)c1ccc(-n2cccn2)cc1 ?
0.972

C/C(=C\c1ccc2c(c1)OCO2)[N+](=O)[O-] ?
0.0948

CC(=O)Nc1ccc([N+](=O)[O-])cc1[N+](=O)[O-] ?
0.188

O=C(NC(=O)c1c(F)cccc1Cl)OCc1ccc(Cl)cc1Cl ?
0.915

N#CCC(=O)NNC(=S)Nc1ccc(Cl)c(Cl)c1 ?
0.929

----------
Assay: chemical genetic growth profiling, strain panel (AID 1159580)
Conditions: S. cerevisiae deletion strains, growth OD, locus YDR054C, strain cdc34, hits give low values
Hit rate of the full screen: of about 5,500 compounds, about 2,000 (36%) were called active. Inconclusive results (about 18%) are left out. The list shows a part of the results.
readout-name: normalized growth
Form: value (number only, do not type unit).

Cc1ccc(S(=O)(=O)CCSC2=CC(=O)CC(C)(C)S2)cc1 ... 0.998

Which normalized growth is reported for this molecule? Cc1c(C)c(C)c(CSC(N)=Nc2ccc(F)cc2)c(C)c1C
0.998

O=C(NCc1ccncc1)c1ccc(-n2cccn2)cc1 ?
0.988

----------
Assay: chemical genetic growth profiling, strain panel (AID 1159580);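 also: tested at 20 µM; growth read once vehicle control cultures reached saturation at 30 °C; 1 = growth at the plate median or of vehicle wells; lower values mean less growth of the strain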
Conditions: S. cerevisiae deletion strains, growth OD, locus YOL012C, strain htz1
Screen size: about 5,500 compounds; about 2,000 (36%) were called active. Not shown: some 18% with an inconclusive outcome. This is one part of the list.
Could you mark each record Condition met if its normalized growth falls strictly under 1, and Condition not met if it equals or exceeds it?

// below: answered compounds
Cc1c(O)c(O)cc2c1CC=C1[C@@]2(C)CC[C@@]2(C)C3C[C@](C)(C(=O)O)CC[C@]3(C)CC[C@]12C (some centres undefined) ... Condition met
CC(=O)OCC1(C)CCC2(C)CCC3(C)C4=CCc5c(cc(OC(C)=O)c(OC(C)=O)c5C)C4(C)CCC3(C)C2C1 (centres undefined) ... Condition not met

Strictly below 1 in normalized growth? COC(=O)[C@]1(C)CC[C@]2(C)CC[C@]3(C)C4=CCc5c(cc(O)c(O)c5C)[C@]4(C)CC[C@@]3(C)C2C1 (some centres undefined)
Condition not met

O=C1O[C@H](C(O)CO)C(O)=C1O (some centres undefined) ?
Condition not met

CC(Cc1ccc(O)c(O)c1)C(C)Cc1ccc(O)c(O)c1 (centres undefined) ?
Condition met

CC(=O)O[C@@H]1CC2C(C)(C)C(=O)CC[C@]2(C)C2CC[C@]3(C)C(=CC(=O)O[C@H]3c3ccoc3)[C@@]21C (some centres undefined) ?
Condition met

Cc1ccc(/C(=C\CN2CCCC2)c2ccccn2)cc1 ?
Condition not met

O=C(OC1Cc2c(O)cc(O)cc2OC1c1cc(O)c(O)c(O)c1-c1c(C2Oc3cc(O)cc(O)c3CC2OC(=O)c2cc(O)c(O)c(O)c2)cc(O)c(O)c1O)c1cc(O)c(O)c(O)c1 (centres undefined) ?
Condition not met

N[C@@H](Cc1ccc(O)c(O)c1)C(=O)O ?
Condition met

----------
Experiment: chemical genetic growth profiling, strain panel (AID 1159580);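 also: tested at 20 µM; growth read once vehicle control cultures reached saturation at 30 °C; 1 = growth at the plate median or of vehicle wells; lower values mean less growth of the strain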
Conditions: S. cerevisiae deletion strains, growth OD, locus YHR079C, strain IRE1 (second series), hits give low values
In all, about 5,500 compounds went through this assay and about 2,000 (36%) were called active. Inconclusive results (about 18%) are left out. This is one part of the list.
readout-name: normalized growth
Form: value (number only, do not type unit).

O=C(O)CCC(=O)C(=O)O ... 1.03
Cc1ccc2cc3c(ccc4ccccc43)c3c2c1CC3 ... 0.954
O=C(O)CF ... 0.979
CO[C@H]1/C=C/O[C@@]2(C)Oc3c(C)c(O)c4c(O)c(c(/C=N/N5CCN(C)CC5)c(O)c4c3C2=O)NC(=O)/C(C)=C\C=C\C(C)[C@H](O)[C@@H](C)[C@@H](O)[C@@H](C)[C@@H](OC(C)=O)[C@@H]1C (stereo partly specified) ... 1.02
c1ccc2c(c1)cc1ccc3cccc4ccc2c1c34 ... 0.982

Please look at the following compound next.
Which normalized growth is reported for this compound? COc1c2c(cc3c1OCO3)CCN(C)C2
1.02

----------
Assay: chemical genetic growth profiling, strain panel (AID 1159580);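 also: tested at 20 µM; growth read once vehicle control cultures reached saturation at 30 °C; 1 = growth at the plate median or of vehicle wells; lower values mean less growth of the strain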
Conditions: S. cerevisiae deletion strains, growth OD, locus YLR085C, strain ARP6, hits give low values
About 2,000 (36%) of roughly 5,500 compounds were called active. Another 18% or so got no clear call; they are omitted. The list shows a part of the results.
Could you mark each record 1 (yes) if its normalized growth falls strictly under 0.9, and 0 (no) if it equals or exceeds it?

CC1C(c2ccccc2)OCCN1CN1C(=O)c2ccccc2C1=O (configuration not stated) ... 0 (no)

Strictly below 0.9 in normalized growth? O=C1OC2COC(=O)C2C=C1NC(=O)c1ccc(Cl)cc1 (configuration not stated)
1 (yes)

CSc1ccc(/C=C/[N+](=O)[O-])cc1 ?
1 (yes)

Cc1c(Cl)cccc1NC(=S)Nc1ccc(Cl)cc1C(=O)c1ccccc1 ?
0 (no)

O=C(N/N=C\C=C\c1ccccc1)c1ccccc1-n1cccc1 ?
1 (yes)

Nc1ccccc1SCC(=O)Nc1c(F)cccc1F ?
0 (no)

CSC1=NCN(Cc2ccccc2)CN1 ?
0 (no)

COc1ccc(OC)c(S(=O)(=O)N2CCc3cc(OC)c(OC)cc3C2C)c1 (configuration not stated) ?
0 (no)

O=[N+]([O-])/C=C/c1ccsc1 ?
1 (yes)

Clc1cc(Cl)cc(-n2cccc2)c1 ?
0 (no)

Clc1cc(Cl)c(Cl)c(-n2cccc2)c1Cl ?
1 (yes)
